# credit: BindingDB's records for doi:10.1021/jm050499d

Assay: Predicted binding affinity for beta secretase by linear interaction energy continuum electrostatics
quantity.measured: pKi
// pKi: -log10(molar conc.)

The molecule identified as `COCCCNC(=O)c1cc(NC(=O)Nc2cc(C(F)(F)F)cc(C(F)(F)F)c2)ccc1N(C)C` registered its pKi at 5.03
